Values from ChEMBL document CHEMBL5390254

Experiment: Metabolic stability in rat liver microsomes assessed as intrinsic clearance at 3 uM incubated upto 90 mins in presence of NADPH by LC-MS/MS analysis
Assay type: ADME, Microsome
Details: read-out: CLH
Consider the following compounds; for each one, report its CLint scaled at 3 µM.

Could I get CLint scaled at 3 µM for every one of these entries?
1. Nc1nc(-c2nn(Cc3ccccc3F)c3ncccc23)ncc1C1CC1
2. Nc1nc(-c2cn(Cc3c(F)cccc3Cl)c3ncccc23)ncc1C1CC1
3. Fc1cccc(Cl)c1Cn1cc(-c2ncc(C3CC3)cn2)c2cccnc21

Resp:
101 mL/min/kg
319 mL/min/kg
150 mL/min/kg

====

Consider the following compounds; for each one, report its logP.
Experiment: 1-octanol/water partition coefficient, logP of the compound at 2 mg by UPLC analysis
Format: physicochemical

Take a look at these entries with their results.
Nc1nc(-c2cn(Cc3c(F)cccc3Cl)c3ncccc23)ncc1C1CC1 | 5.3
Fc1cccc(Cl)c1Cn1cc(-c2ncc(C3CC3)cn2)c2cccnc21 | 5.3
Fc1cccc(F)c1Cn1cc(-c2ncc(C3CC3)cn2)c2cccnc21 | 5.5

Let's switch to this compound now.
Per the records, this compound ( Nc1nc(-c2cn(Cc3c(F)cccc3F)c3ncccc23)ncc1C1CC1 ) has logP equal to 5.1

====

Experiment: Tmax in Sprague-Dawley rat at 15 mg/kg, po and measured upto 48 hrs by LC-MS/MS analysis
Assay type: ADME, organism-based
Details: in vivo
MEASURED ENDPOINT: Tmax (h)
Numbers only, in h.

Per the records, this compound ( Nc1nc(-c2cn(Cc3c(F)cccc3Cl)c3ncccc23)ncc1C1CC1 ) has Tmax equal to 2

====

Test: Half life in Sprague-Dawley rat at 15 mg/kg, po and measured upto 48 hrs by LC-MS/MS analysis
Format: ADME, organism-based
Settings: in vivo
MEASURED ENDPOINT: half-life

Per the records, this molecule ( Nc1nc(-c2cn(Cc3c(F)cccc3Cl)c3ncccc23)ncc1C1CC1 ) has half-life equal to 1.6 h

====

Assay: Oral bioavailability in Han Wistar rat at 5 mg/kg and measured upto 24 hrs by LC-MS analysis
Assay type: ADME, organism-based
Settings: in vivo
MEASURED ENDPOINT: bioavailability (%)
One number for each entry, in %.

Per the records, this compound ( COc1cccc(-c2ccc(NC(=O)C3=C(C(=O)O)CCC3)c(F)c2)c1 [VIDOFLUDIMUS] ) has bioavailability equal to 73.8

====

Assay: Metabolic stability in rat liver microsomes assessed as half life at 3 uM incubated upto 90 mins in presence of NADPH by LC-MS/MS analysis
Format: ADME, Microsome
MEASURED ENDPOINT: half-life at 3 µM
Reply with a number, then the unit it belongs to.

Take a look at these entries with their results.
Fc1cccc(Cl)c1Cn1cc(-c2ncc(C3CC3)cn2)c2cccnc21 | 16.5 min
Nc1nc(-c2nn(Cc3ccccc3F)c3ncccc23)ncc1C1CC1 | 24.5 min

Let's switch to this molecule now.
Per the records, this molecule ( Nc1nc(-c2cn(Cc3c(F)cccc3Cl)c3ncccc23)ncc1C1CC1 ) has half-life at 3 µM equal to 7.8 min

====

Test: Apparent oral clearance in Han Wistar rat at 5 mg/kg,po and measured upto 24 hrs by LC-MS analysis
Type: ADME, organism-based
Conditions: in vivo
MEASURED ENDPOINT: CL/F (mL/min/kg)
One number for each entry, in mL/min/kg.

Per the records, this compound ( COc1cccc(-c2ccc(NC(=O)C3=C(C(=O)O)CCC3)c(F)c2)c1 [VIDOFLUDIMUS] ) has CL/F equal to 220
